- Experimental system: Human Cav2.2 channels (Homo sapiens)
- Construct: expressed in transfected cells
- Sequence (Q00975 whole entry): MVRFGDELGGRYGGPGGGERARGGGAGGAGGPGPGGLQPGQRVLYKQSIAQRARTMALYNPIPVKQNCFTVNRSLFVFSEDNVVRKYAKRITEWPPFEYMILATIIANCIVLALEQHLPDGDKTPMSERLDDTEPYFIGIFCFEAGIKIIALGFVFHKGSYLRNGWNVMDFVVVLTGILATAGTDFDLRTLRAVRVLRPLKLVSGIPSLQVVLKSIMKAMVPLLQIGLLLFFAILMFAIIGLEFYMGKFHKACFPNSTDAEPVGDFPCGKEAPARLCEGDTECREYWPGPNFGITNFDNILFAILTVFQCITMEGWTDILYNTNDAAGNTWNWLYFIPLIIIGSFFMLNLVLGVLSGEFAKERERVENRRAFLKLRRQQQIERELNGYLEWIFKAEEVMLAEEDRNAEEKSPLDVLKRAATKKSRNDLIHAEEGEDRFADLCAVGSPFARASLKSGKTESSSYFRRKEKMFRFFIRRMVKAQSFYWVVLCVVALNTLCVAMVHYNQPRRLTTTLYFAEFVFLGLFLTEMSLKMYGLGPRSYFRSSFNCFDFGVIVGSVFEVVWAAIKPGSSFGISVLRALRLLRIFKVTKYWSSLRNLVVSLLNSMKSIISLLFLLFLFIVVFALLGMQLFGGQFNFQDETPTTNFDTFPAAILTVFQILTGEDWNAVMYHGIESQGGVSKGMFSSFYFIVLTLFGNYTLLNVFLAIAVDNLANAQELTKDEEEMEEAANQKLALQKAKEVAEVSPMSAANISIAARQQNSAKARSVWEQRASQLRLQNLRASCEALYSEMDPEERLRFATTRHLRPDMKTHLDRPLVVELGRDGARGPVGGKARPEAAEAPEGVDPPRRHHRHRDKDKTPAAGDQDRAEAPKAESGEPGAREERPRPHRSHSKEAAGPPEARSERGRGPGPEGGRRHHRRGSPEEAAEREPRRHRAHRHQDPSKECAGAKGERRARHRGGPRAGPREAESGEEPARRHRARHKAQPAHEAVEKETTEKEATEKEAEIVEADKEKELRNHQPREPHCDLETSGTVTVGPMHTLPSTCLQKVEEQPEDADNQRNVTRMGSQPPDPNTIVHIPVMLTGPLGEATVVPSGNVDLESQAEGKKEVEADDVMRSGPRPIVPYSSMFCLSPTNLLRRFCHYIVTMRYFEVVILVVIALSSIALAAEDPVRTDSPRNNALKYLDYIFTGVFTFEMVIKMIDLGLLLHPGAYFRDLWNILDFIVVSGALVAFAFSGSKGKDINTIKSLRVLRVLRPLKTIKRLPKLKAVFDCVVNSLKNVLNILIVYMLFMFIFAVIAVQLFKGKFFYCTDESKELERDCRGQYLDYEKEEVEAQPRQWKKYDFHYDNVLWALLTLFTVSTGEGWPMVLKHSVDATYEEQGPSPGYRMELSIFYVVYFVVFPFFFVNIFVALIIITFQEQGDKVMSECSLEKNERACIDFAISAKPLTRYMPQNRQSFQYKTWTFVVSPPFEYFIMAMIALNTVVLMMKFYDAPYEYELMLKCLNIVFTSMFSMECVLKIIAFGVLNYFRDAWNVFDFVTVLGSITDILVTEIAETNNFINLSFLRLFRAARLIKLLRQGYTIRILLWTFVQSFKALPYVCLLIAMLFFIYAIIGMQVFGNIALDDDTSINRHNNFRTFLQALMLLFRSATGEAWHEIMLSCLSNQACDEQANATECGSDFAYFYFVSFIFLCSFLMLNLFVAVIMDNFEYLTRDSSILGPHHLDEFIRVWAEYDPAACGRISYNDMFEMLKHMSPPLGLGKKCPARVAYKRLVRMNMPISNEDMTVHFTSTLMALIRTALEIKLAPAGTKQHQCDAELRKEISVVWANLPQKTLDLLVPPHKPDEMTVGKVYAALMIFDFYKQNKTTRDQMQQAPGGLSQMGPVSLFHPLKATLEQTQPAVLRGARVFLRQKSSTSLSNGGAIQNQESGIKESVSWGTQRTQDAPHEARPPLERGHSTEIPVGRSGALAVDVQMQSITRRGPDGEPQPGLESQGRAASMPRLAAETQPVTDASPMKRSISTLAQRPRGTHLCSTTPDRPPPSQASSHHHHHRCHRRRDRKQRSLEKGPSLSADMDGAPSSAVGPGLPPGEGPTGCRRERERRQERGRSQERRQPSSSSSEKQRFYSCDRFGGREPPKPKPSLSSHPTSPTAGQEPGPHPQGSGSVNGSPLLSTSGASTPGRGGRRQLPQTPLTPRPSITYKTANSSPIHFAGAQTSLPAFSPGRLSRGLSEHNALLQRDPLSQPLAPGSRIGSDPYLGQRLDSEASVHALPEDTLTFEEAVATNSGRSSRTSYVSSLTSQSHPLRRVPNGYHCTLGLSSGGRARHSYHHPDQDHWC
- Sequence (P54289 25-1103 partner): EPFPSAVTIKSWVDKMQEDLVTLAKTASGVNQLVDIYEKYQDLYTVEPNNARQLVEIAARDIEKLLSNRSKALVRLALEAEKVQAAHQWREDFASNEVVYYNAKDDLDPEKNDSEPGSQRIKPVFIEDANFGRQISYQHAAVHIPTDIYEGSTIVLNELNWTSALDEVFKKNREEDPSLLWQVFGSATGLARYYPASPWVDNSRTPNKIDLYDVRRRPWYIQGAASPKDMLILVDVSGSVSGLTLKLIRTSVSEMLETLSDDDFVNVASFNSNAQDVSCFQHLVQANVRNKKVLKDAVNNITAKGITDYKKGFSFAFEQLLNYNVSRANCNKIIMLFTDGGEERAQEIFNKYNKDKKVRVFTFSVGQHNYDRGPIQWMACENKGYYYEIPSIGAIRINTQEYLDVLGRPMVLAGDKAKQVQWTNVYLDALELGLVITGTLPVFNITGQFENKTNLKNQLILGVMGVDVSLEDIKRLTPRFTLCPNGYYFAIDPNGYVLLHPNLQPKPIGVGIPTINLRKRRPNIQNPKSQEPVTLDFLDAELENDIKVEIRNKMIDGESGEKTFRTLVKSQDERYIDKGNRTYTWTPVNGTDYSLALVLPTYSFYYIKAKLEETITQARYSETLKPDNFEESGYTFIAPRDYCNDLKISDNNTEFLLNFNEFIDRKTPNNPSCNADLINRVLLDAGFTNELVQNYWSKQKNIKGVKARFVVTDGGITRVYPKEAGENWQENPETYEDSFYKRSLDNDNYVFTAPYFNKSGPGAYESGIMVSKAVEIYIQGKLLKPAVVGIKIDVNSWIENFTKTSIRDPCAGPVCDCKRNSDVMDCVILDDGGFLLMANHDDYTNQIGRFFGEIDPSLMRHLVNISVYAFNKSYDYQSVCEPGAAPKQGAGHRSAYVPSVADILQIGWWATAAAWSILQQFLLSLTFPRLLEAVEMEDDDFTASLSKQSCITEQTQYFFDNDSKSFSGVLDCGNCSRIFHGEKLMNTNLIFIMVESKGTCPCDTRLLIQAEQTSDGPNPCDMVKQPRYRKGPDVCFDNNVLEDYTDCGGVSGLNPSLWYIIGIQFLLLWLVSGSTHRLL
- Sequence (P54284 whole entry partner): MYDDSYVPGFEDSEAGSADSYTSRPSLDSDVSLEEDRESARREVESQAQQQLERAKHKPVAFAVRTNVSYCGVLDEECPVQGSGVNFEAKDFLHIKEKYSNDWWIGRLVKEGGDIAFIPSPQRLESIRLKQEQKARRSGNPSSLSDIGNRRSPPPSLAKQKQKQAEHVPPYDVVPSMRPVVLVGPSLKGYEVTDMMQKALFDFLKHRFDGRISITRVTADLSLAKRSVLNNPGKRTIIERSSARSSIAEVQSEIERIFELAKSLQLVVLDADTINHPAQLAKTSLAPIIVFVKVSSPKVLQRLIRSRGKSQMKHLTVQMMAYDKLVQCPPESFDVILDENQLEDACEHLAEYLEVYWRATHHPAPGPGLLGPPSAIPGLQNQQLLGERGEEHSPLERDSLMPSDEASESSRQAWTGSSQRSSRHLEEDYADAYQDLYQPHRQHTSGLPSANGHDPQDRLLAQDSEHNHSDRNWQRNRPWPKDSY
- Method summary: Fluorescent assay for Cav2.2 channels using potassium depolarization to initiate channel opening
- Type: cell-based
- Test context: 30 μM compound; read-out: Cav 2.2 Activity % Inh at 30 μM
Property: inhibition at 30 µM (%)
Numeric answer only, unit % assumed.

As a guide, the following entries are already answered.
Smiles notation	Unit abbrev	Numeric readout
CC(C)(C)OC(=O)N1CCC(NC(=O)c2cc(C(C)(C)C)nc(C(C)(C)C)c2)(C(=O)NCc2ccccc2)CC1	%	62.5
CC(C)(C(N)=O)c1cccc(C(=O)NC2(C(=O)NCc3cccc(C(F)(F)F)c3)CCCCC2)c1	%	70.8
CC(C)(C)c1cc(NC(=O)C2(NCc3ccc(F)cc3F)CCCCC2)cc(C(C)(C)C)c1	%	80.2

# inhibition at 30 µM measured on Human Cav2.2 channels (Homo sapiens) for item CC(C)(C)c1cc(C(=O)NC2(C(=O)Nc3ccccc3)CCCCC2)cc(C(C)(C)C)c1O = 106

# inhibition at 30 µM measured on Human Cav2.2 channels (Homo sapiens) for item Cc1cc(CNC(=O)C2(NC(=O)c3cc(C(C)(C)C)c(O)c(C(C)(C)C)c3)CC2)no1 = 98

# inhibition at 30 µM measured on Human Cav2.2 channels (Homo sapiens) for item CN(C)c1ccc(CNC(=O)C2(NC(=O)c3cc(C(C)(C)C)c(O)c(C(C)(C)C)c3)CCCCC2)cc1 = 102

# inhibition at 30 µM measured on Human Cav2.2 channels (Homo sapiens) for item CC(C)(C)c1cc(C(=O)NC2(C(=O)NCc3ccc(NS(C)(=O)=O)cc3)CC2)cc(C(C)(C)C)c1O = 101

# inhibition at 30 µM measured on Human Cav2.2 channels (Homo sapiens) for item COc1c(C(C)(C)C)cc(C(=O)NC2(C(=O)N3CCCC3)CCCCC2)cc1C(C)(C)C = 93.4

# inhibition at 30 µM measured on Human Cav2.2 channels (Homo sapiens) for item CN(C)c1ccc(CNC(=O)C2(NC(=O)c3cc(C(C)(C)C)nc(C(C)(C)C)c3)CCCCC2)cc1 = 66.9

# inhibition at 30 µM measured on Human Cav2.2 channels (Homo sapiens) for item CC(C)(C)c1cc(C(=O)NC2(C(=O)Nc3ccccn3)CC2)cc(C(C)(C)C)c1O = 76
